The reader will find reported self-cleavage kobs at 40 uM GlcN6P values listed item by item below.
B1: glmS ribozyme (parent)
chain: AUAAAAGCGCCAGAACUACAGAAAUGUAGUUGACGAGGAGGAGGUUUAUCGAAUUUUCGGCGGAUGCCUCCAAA

Variants of: B1
Assay: self-cleavage kobs at 40 uM GlcN6P; higher = faster cleavage; RNA array
Settings: with glucosamine-6-phosphate
Fewer inactive variants are shown than the library holds.

Form field: reported self-cleavage kobs at 40 uM GlcN6P of U57G G60C < 1e-05 s⁻¹

Form field: reported self-cleavage kobs at 40 uM GlcN6P of G26A A39U G40C 5.34e-05 s⁻¹

Form field: reported self-cleavage kobs at 40 uM GlcN6P of A6U U31G < 1e-05 s⁻¹

Form field: reported self-cleavage kobs at 40 uM GlcN6P of A39G G60U < 1e-05 s⁻¹

Form field: reported self-cleavage kobs at 40 uM GlcN6P of A33C G37C < 1e-05 s⁻¹
